Can you tell me GI50 for the items I'm about to list?
System: SK-MEL-28
Experiment: SRB colorimetric assay of cell growth and viability, SK-MEL-28
Type: cell-based, human
Details: 48 hours exposure
Description: The finality of this assay is to interrupt the growth of a “in vitro” tumor cell culture by means a continued exhibition of the cells to the sample to be testing. […] Cells are seeded in 96 well microtiter plates, at 5×10^3 cells per well in aliquots of 195 μL medium, and they are allowed to attach to the plate surface by growing in drug free medium for 18 hours. […] Optical densities are read on a automated spectrophotometric plate reader at a single wavelength of 490 nm. […]
Where a SMILES comes first, the peptide text is derived from it. Bridges are numbered along the chain shown (N, C = ends). [ ]: non-standard residue; d: D form. The star is where a group is joined. d(aIle) = CC[C@H](C)[C@@H](N)C(=O)O; d(aThr) = C[C@@H](O)[C@@H](N)C(=O)O; Hexanoyl(5-Me) = CC(C)CCCC(=O)*; Dhb = C/C=C(\N)C(=O)O
Unit nM implied. Number only.

IN: What value of GI50 on SK-MEL-28 does C/C=C1\NC(=O)[C@H](Cc2ccccc2)NC(=O)[C@@H](C(C)C)NC(=O)[C@@H]([C@@H](C)CC)NC(=O)[C@H](NC(=O)[C@H](NC(=O)[C@H](CCCN)NC(=O)[C@H]2CCCN2C(=O)[C@H](NC(=O)[C@@H](NC(=O)[C@@H](NC(=O)[C@H](NC(=O)CCCCCCC)C(C)C)[C@@H](C)O)C(C)C)C(C)C)[C@@H](C)CC)[C@@H](C)OC(=O)[C@H](C(C)C)NC1=O [Compound 18, [Oct^14]-KF] have?
OUT: 670

IN: What value of GI50 on SK-MEL-28 does C/C=C1\NC(=O)[C@H](Cc2ccccc2)NC(=O)[C@@H](C(C)C)NC(=O)[C@@H]([C@@H](C)CC)NC(=O)[C@H](NC(=O)[C@H](NC(=O)[C@H](CCC(=O)O)NC(=O)[C@H]2CCCN2C(=O)[C@H](NC(=O)[C@@H](NC(=O)[C@@H](NC(=O)[C@H](NC(=O)CCCC(C)C)C(C)C)[C@@H](C)O)C(C)C)C(C)C)[C@@H](C)CC)[C@@H](C)OC(=O)[C@H](C(C)C)NC1=O [Compound 4, [Glu^8]-KF] ({Hexanoyl(5-Me)}-[dV]TV[dV][dP]E[d(aIle)][d(aThr)][d(aIle)][dV]F[Dhb]V; ester 8-C) have?
OUT: 2950

IN: What value of GI50 on SK-MEL-28 does C/C=C1\NC(=O)[C@H](Cc2ccccc2)NC(=O)[C@@H](C(C)C)NC(=O)[C@@H]([C@@H](C)CC)NC(=O)[C@H](NC(=O)[C@H](NC(=O)[C@H](CCCN)NC(=O)[C@H]2CCCN2C(=O)[C@H](NC(=O)[C@@H](NC(=O)[C@@H](NC(=O)[C@@H](CCC(=O)O)NC(=O)CCCC(C)C)[C@@H](C)O)C(C)C)C(C)C)[C@@H](C)CC)[C@@H](C)OC(=O)[C@H](C(C)C)NC1=O [Compound 39, [D-Glu^13]-KF] have?
OUT: 3390
